System: MHH-ES-1 (Ewing's Sarcoma)
measurement.description: combination Emax (second highest fraction inhibited in the dose matrix, 72 h); higher = more inhibition; extreme values may be limits of the assay
attribute.measured: combination Emax

# compound, study.system, attribute.measured, observed.result
records = [
    ("C=CCn1c(=O)c2cnc(Nc3ccc(N4CCN(C)CC4)cc3)nc2n1-c1cccc(C(C)(C)O)n1 [AZD1775] + C1CN(CCC1(C(=O)N[C@@H](CCO)C2=CC=C(C=C2)Cl)N)C3=NC=NC4=C3C=CN4 [Capivasertib] (first compound max 3 µM, partner max 3 µM)", "MHH-ES-1 (Ewing's Sarcoma)", "combination Emax", 0.833),
    ("Cc1c2c(nn1C)CSCc1cc(n(C)n1)CSc1cc(c3ccccc3c1)OCCCc1c(C(=O)O)n(C)c3c-2c(Cl)ccc13 [AZD5991] + CC1(C)CCC(CN2CCN(c3ccc(C(=O)NS(=O)(=O)c4ccc(NCC5CCOCC5)c([N+](=O)[O-])c4)c(Oc4cnc5[nH]ccc5c4)c3)CC2)=C(c2ccc(Cl)cc2)C1 [Venetoclax] (first compound max 1 µM, 7x7, partner max 1 µM)", "MHH-ES-1 (Ewing's Sarcoma)", "combination Emax", 0.852),
    ("CN(CCO)CC[C@H](CSc1ccccc1)Nc1ccc(S(=O)(=O)NC(=O)c2ccc(N3CCC([C@@H](O)c4ccccc4-c4ccc(Cl)cc4)CC3)cc2)cc1S(=O)(=O)C(F)(F)F [AZD4320] + CN(C)CCCOc1ccc(-c2ccc3ncc4c(c3c2)n(C2CCOCC2)c(=O)n4C)cn1 [AZD0156] (first compound max 1 µM, 7x7, partner max 1 µM)", "MHH-ES-1 (Ewing's Sarcoma)", "combination Emax", 0.491),
]

----------
Tested on: JVM-2 (B-Cell Non-Hodgkin's Lymphoma)
measurement.description: combination Emax (second highest fraction inhibited in the dose matrix, 72 h); higher = more inhibition; extreme values may be limits of the assay

# compound, study.system, combination Emax
rows = [
    ("Cc1c2c(nn1C)CSCc1cc(n(C)n1)CSc1cc(c3ccccc3c1)OCCCc1c(C(=O)O)n(C)c3c-2c(Cl)ccc13 [AZD5991] + C[C@@H]1COCCN1C2=NC(=NC(=C2)C3(CC3)[S@](=N)(=O)C)C4=C5C=CNC5=NC=C4 [AZD6738] (first compound max 1 µM, 7x7, partner max 10 µM)", "JVM-2 (B-Cell Non-Hodgkin's Lymphoma)", 0.912),
    ("C=CCn1c(=O)c2cnc(Nc3ccc(N4CCN(C)CC4)cc3)nc2n1-c1cccc(C(C)(C)O)n1 [AZD1775] + O=C(c1cc(Cc2n[nH]c(=O)c3ccccc23)ccc1F)N1CCN(C(=O)C2CC2)CC1 [Olaparib] (first compound max 1 µM, partner max 10 µM)", "JVM-2 (B-Cell Non-Hodgkin's Lymphoma)", 0.888),
    ("CN(C)CCCOc1ccc(-c2ccc3ncc4c(c3c2)n(C2CCOCC2)c(=O)n4C)cn1 [AZD0156] + C=CCn1c(=O)c2cnc(Nc3ccc(N4CCN(C)CC4)cc3)nc2n1-c1cccc(C(C)(C)O)n1 [AZD1775] (first compound max 1 µM, partner max 1 µM)", "JVM-2 (B-Cell Non-Hodgkin's Lymphoma)", 0.888),
]

----------
combination Emax: recorded values
Tested on: LS-411N (Colorectal Carcinoma)
measurement.description: combination Emax (second highest fraction inhibited in the dose matrix, 72 h); higher = more inhibition; extreme values may be limits of the assay

# molecule, combination Emax
measured = [
    ("COc1cccc(OCCCN)c1-c1cc(Nc2cnc(C#N)cn2)n[nH]1 [Prexasertib] + C=CCn1c(=O)c2cnc(Nc3ccc(N4CCN(C)CC4)cc3)nc2n1-c1cccc(C(C)(C)O)n1 [AZD1775] (first compound max 1 µM, partner max 1 µM)", 0.759),
    ("Cc1c2c(nn1C)CSCc1cc(n(C)n1)CSc1cc(c3ccccc3c1)OCCCc1c(C(=O)O)n(C)c3c-2c(Cl)ccc13 [AZD5991] + C=CCn1c(=O)c2cnc(Nc3ccc(N4CCN(C)CC4)cc3)nc2n1-c1cccc(C(C)(C)O)n1 [AZD1775] (first compound max 1 µM, partner max 1 µM)", 0.741),
    ("NC1(C(=O)N[C@@H](CCO)c2ccc(Cl)cc2)CCN(c2ncnc3[nH]ccc23)CC1 [Capivasertib] + COc1nnc2ccc(N3CCC(c4ccc(OCCN5CCN(C)C(=O)[C@H]5C)cc4)CC3)nn12 [AZD5153] (first compound max 10 µM, 7x7, partner max 1 µM)", 0.937),
    ("NC1(C(=O)N[C@@H](CCO)c2ccc(Cl)cc2)CCN(c2ncnc3[nH]ccc23)CC1 [Capivasertib] + C[C@@H]1COCCN1C2=NC(=NC(=C2)C3(CC3)[S@](=N)(=O)C)C4=C5C=CNC5=NC=C4 [AZD6738] (first compound max 10 µM, 7x7, partner max 10 µM)", 0.751),
]

----------
Tested on: MKN1 (Gastric Carcinoma)
measurement.description: combination Emax (second highest fraction inhibited in the dose matrix, 72 h); higher = more inhibition; extreme values may be limits of the assay
attribute.measured: combination Emax

# molecule, observed.result
records = [
    ("COc1nnc2ccc(N3CCC(c4ccc(OCCN5CCN(C)C(=O)[C@H]5C)cc4)CC3)nn12 [AZD5153] + C[C@@H]1COCCN1C2=NC(=NC(=C2)C3(CC3)[S@](=N)(=O)C)C4=C5C=CNC5=NC=C4 [AZD6738] (first compound max 1 µM, 7x7, partner max 10 µM)", 0.936),
    ("NC1(C(=O)N[C@@H](CCO)c2ccc(Cl)cc2)CCN(c2ncnc3[nH]ccc23)CC1 [Capivasertib] + C[C@@H]1COCCN1C2=NC(=NC(=C2)C3(CC3)[S@](=N)(=O)C)C4=C5C=CNC5=NC=C4 [AZD6738] (first compound max 10 µM, 7x7, partner max 10 µM)", 0.807),
    ("Cn1cnc2c(F)c(Nc3ccc(Br)cc3Cl)c(C(=O)NOCCO)cc21 [Selumetinib] + C=CCn1c(=O)c2cnc(Nc3ccc(N4CCN(C)CC4)cc3)nc2n1-c1cccc(C(C)(C)O)n1 [AZD1775] (first compound max 10 µM, partner max 1 µM)", 0.782),
]

----------
combination Emax: recorded values
Test system: A2780 (Ovarian Carcinoma)
measurement.description: combination Emax (second highest fraction inhibited in the dose matrix, 72 h); higher = more inhibition; extreme values may be limits of the assay

# compound, combination Emax
measured = [
    ("Cc1c2c(nn1C)CSCc1cc(n(C)n1)CSc1cc(c3ccccc3c1)OCCCc1c(C(=O)O)n(C)c3c-2c(Cl)ccc13 [AZD5991] + CC1(C)CCC(CN2CCN(c3ccc(C(=O)NS(=O)(=O)c4ccc(NCC5CCOCC5)c([N+](=O)[O-])c4)c(Oc4cnc5[nH]ccc5c4)c3)CC2)=C(c2ccc(Cl)cc2)C1 [Venetoclax] (first compound max 1 µM, 7x7, partner max 1 µM)", 0.817),
    ("COc1nnc2ccc(N3CCC(c4ccc(OCCN5CCN(C)C(=O)[C@H]5C)cc4)CC3)nn12 [AZD5153] + CCN(CCO)CCCOc1ccc2c(Nc3cc(CC(=O)Nc4cccc(F)c4)[nH]n3)ncnc2c1 [AZD2811] (first compound max 1 µM, 7x7, partner max 1 µM)", 0.783),
    ("C=CCn1c(=O)c2cnc(Nc3ccc(N4CCN(C)CC4)cc3)nc2n1-c1cccc(C(C)(C)O)n1 [AZD1775] + CCc1c2c(nc3ccc(O)cc13)-c1cc3c(c(=O)n1C2)COC(=O)[C@]3(O)CC [SN-38] (first compound max 1 µM, partner max 0.3 µM)", 0.94),
    ("CC1(C)CCC(CN2CCN(c3ccc(C(=O)NS(=O)(=O)c4ccc(NCC5CCOCC5)c([N+](=O)[O-])c4)c(Oc4cnc5[nH]ccc5c4)c3)CC2)=C(c2ccc(Cl)cc2)C1 [Venetoclax] + CCN(CCO)CCCOc1ccc2c(Nc3cc(CC(=O)Nc4cccc(F)c4)[nH]n3)ncnc2c1 [AZD2811] (first compound max 1 µM, 7x7, partner max 1 µM)", 0.472),
    ("CN(CCO)CC[C@H](CSc1ccccc1)Nc1ccc(S(=O)(=O)NC(=O)c2ccc(N3CCC([C@@H](O)c4ccccc4-c4ccc(Cl)cc4)CC3)cc2)cc1S(=O)(=O)C(F)(F)F [AZD4320] + Nc1ccn([C@@H]2O[C@H](CO)[C@@H](O)C2(F)F)c(=O)n1 [Gemcitabine] (first compound max 1 µM, 7x7, partner max 0.3 µM)", 0.893),
]

----------
Tested on: LU-165 (Small Cell Lung Carcinoma)
measurement.description: combination Emax (second highest fraction inhibited in the dose matrix, 72 h); higher = more inhibition; extreme values may be limits of the assay
Could you label it satisfied if measured combination Emax is 0.3 or higher, and not satisfied otherwise?

# compound, assigned.category
data = [
    ("COc1cccc(OCCCN)c1-c1cc(Nc2cnc(C#N)cn2)n[nH]1 [Prexasertib] + O=C(c1cc(Cc2n[nH]c(=O)c3ccccc23)ccc1F)N1CCN(C(=O)C2CC2)CC1 [Olaparib] (first compound max 1 µM, 7x7, partner max 10 µM)", "satisfied"),
    ("C=CCn1c(=O)c2cnc(Nc3ccc(N4CCN(C)CC4)cc3)nc2n1-c1cccc(C(C)(C)O)n1 [AZD1775] + Nc1ccn([C@@H]2O[C@H](CO)[C@@H](O)C2(F)F)c(=O)n1 [Gemcitabine] (first compound max 1 µM, partner max 0.3 µM)", "satisfied"),
    ("CC(=O)c1c(C)c2cnc(Nc3ccc(N4CCNCC4)cn3)nc2n(C2CCCC2)c1=O [Palbociclib] + Cn1cnc2c(F)c(Nc3ccc(Br)cc3Cl)c(C(=O)NOCCO)cc21 [Selumetinib] (first compound max 10 µM, 7x7, partner max 10 µM)", "not satisfied"),
    ("C[C@@H](c1ccc2nccn2c1)n1nnc2ncc(-c3cnn(C)c3)nc21 [Savolitinib] + Cc1c2c(nn1C)CSCc1cc(n(C)n1)CSc1cc(c3ccccc3c1)OCCCc1c(C(=O)O)n(C)c3c-2c(Cl)ccc13 [AZD5991] (first compound max 1 µM, 7x7, partner max 1 µM)", "not satisfied"),
    ("CS(=O)(=O)CCNCc1ccc(-c2ccc3ncnc(Nc4ccc(OCc5cccc(F)c5)c(Cl)c4)c3c2)o1 [Lapatinib] + C[C@@H](Oc1cc(-c2cnn(C3CCNCC3)c2)cnc1N)c1c(Cl)ccc(F)c1Cl [Crizotinib] (first compound max 10 µM, 7x7, partner max 10 µM)", "satisfied"),
    ("CN(C)CCCOc1ccc(-c2ccc3ncc4c(c3c2)n(C2CCOCC2)c(=O)n4C)cn1 [AZD0156] + CCN(CCO)CCCOc1ccc2c(Nc3cc(CC(=O)Nc4cccc(F)c4)[nH]n3)ncnc2c1 [AZD2811] (first compound max 1 µM, 7x7, partner max 1 µM)", "not satisfied"),
    ("Cc1c2c(nn1C)CSCc1cc(n(C)n1)CSc1cc(c3ccccc3c1)OCCCc1c(C(=O)O)n(C)c3c-2c(Cl)ccc13 [AZD5991] + C[C@@H](Nc1cc(F)cc(F)c1)c1cc(C(=O)N(C)C)cc2c(=O)cc(N3CCOCC3)oc12 [AZD8186] (first compound max 1 µM, 7x7, partner max 3 µM)", "not satisfied"),
    ("CC1(C)CCC(CN2CCN(c3ccc(C(=O)NS(=O)(=O)c4ccc(NCC5CCOCC5)c([N+](=O)[O-])c4)c(Oc4cnc5[nH]ccc5c4)c3)CC2)=C(c2ccc(Cl)cc2)C1 [Venetoclax] + C=CCn1c(=O)c2cnc(Nc3ccc(N4CCN(C)CC4)cc3)nc2n1-c1cccc(C(C)(C)O)n1 [AZD1775] (first compound max 1 µM, partner max 1 µM)", "satisfied"),
    ("Cc1cc2ncnn2cc1Nc1ncc2c(n1)n(C1CCOCC1)c(=O)n2C [AZD7648] + CCN(CCO)CCCOc1ccc2c(Nc3cc(CC(=O)Nc4cccc(F)c4)[nH]n3)ncnc2c1 [AZD2811] (first compound max 10 µM, 7x7, partner max 1 µM)", "not satisfied"),
    ("Cc1c2c(nn1C)CSCc1cc(n(C)n1)CSc1cc(c3ccccc3c1)OCCCc1c(C(=O)O)n(C)c3c-2c(Cl)ccc13 [AZD5991] + CN(C)CCCOc1ccc(-c2ccc3ncc4c(c3c2)n(C2CCOCC2)c(=O)n4C)cn1 [AZD0156] (first compound max 1 µM, 7x7, partner max 1 µM)", "not satisfied"),
]
